# assay.target: Cytochrome P450 2D6 (Homo sapiens) (UniProt P10635)
# Sequence (P10635 whole entry, looked up): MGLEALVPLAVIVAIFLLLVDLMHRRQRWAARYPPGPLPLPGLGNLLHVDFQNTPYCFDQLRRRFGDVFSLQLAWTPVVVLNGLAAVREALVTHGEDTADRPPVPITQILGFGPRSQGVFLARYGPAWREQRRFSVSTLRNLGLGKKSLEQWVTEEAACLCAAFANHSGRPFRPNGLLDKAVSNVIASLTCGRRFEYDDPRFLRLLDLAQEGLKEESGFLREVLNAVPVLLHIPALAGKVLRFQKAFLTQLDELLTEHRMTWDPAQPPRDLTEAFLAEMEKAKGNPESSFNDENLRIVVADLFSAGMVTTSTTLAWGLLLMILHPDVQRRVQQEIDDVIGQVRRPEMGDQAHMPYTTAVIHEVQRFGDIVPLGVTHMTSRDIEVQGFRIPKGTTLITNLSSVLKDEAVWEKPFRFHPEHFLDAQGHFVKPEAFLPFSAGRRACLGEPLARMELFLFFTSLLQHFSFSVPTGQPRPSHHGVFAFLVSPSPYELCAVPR
# experimental.details: Cytochrome panel assay with activity outcomes
# run.parameters: recombinant CYP, pro-luciferin dealkylation, luminescence, p450-cyp2d6; series mostly up to 57.1 µM
Among all 16,000 compounds or so, about 2,600 (16%) were called active. Not shown: some 20% with an inconclusive outcome. These entries were drawn from the full list.
quantity.measured: AC50

CCn1c(-c2ccc3ncccc3c2)n[nH]c1=S; inactive
N#Cc1c(-c2ccccc2)nc(-c2ccccc2)[nH]c1=O; inactive
C/C(=N/NC(=O)Cc1cccn1C)c1ccccc1; inactive
CN1C(=O)/C(=C\c2ccccc2)Sc2ccc(C(=O)N3CCN(c4ccccn4)CC3)cc21; inactive
CCOc1ccc(NC(=O)c2oc3ccccc3c2NC(=O)CC)cc1; inactive

Endpoint output: AC50 of CN(Cc1ccco1)c1ncnc2ccc(-c3ccccc3C#N)cc12 . Value?
15.8 µM (active)

Query (molecule): CC(C)(C)NS(=O)(=O)c1ccc(NC(=O)C(Sc2ccccc2)c2ccccc2)cc1 (stereo not given) ; field requested: AC50
3.55 µM (active)

----------
# assay.target: Cytochrome P450 2D6 (Homo sapiens) (UniProt P10635)
# experimental.details: Cytochrome panel assay with activity outcomes
# run.parameters: recombinant CYP, pro-luciferin dealkylation, luminescence, p450-cyp2d6; series mostly up to 57.1 µM
The whole screen tested about 16,000 compounds, of which about 2,600 (16%) were called active. Another 20% or so got no clear call; they are omitted. Calls follow the shape of the dose curve; as a rule, active = well fitted curve in the direction sought with a large enough effect; inconclusive = small, poorly fitted or top-dose-only effect, or effect the other way; inactive = no such curve, though single readings can be large or run the other way. A selection follows. Square brackets hold non-standard residues; d marks the D form. Peptide text beside a SMILES is read from it. * marks the point of attachment. ξ: configuration not given here. Cbz = O=C(OCc1ccccc1)*; OBn = c1ccc(CO*)cc1; ξP = O=C(O)C1CCCN1
Please reply with one of these outcomes: 1 for active, 0 for inactive

Dear colleague, could you share the recorded outcome for Cc1cc(C(C)(C)C)c(OCCCN2CCOCC2)c(C(C)(C)C)c1 when you have a moment?
1

Name the outcome recorded for COCCn1c(=O)c(-c2cccs2)nc2cnc(OC)nc21 in the assay.
0

Assay result, entry O=C(Cc1ccccc1)NC1CCN(S(=O)(=O)c2ccc(C(=O)O)cc2)CC1 — outcome?
0

Per the assay record, what outcome was assigned to O=C(CNC(=O)OCc1ccccc1)NCC(=O)N1CCCC1C(=O)OCc1ccccc1 (stereo not drawn) (Cbz-Gly-Gly-[ξP]-OBn) ?
0

Outcome? O=C(Nc1ncn[nH]1)c1ccc([N+](=O)[O-])cc1[N+](=O)[O-]
0

Call for entry Nc1ccccc1Oc1ncc(C(F)(F)F)cc1Cl :
0

Called result for COc1ccc(CC(NC(C)=O)C(=O)NC2CCN(C(=O)Nc3ccc(Cl)cc3)CC2)cc1OC (stereo not drawn)
0

What is the recorded call for this molecule in the test? CCCc1nnc(SCC(=O)N2CCCC(C)C2)n1CC1CCCO1 (stereo not drawn)
0

Check the results log: what was the call for Cc1cc(C(=O)CSc2nnc(N)s2)c(C)n1CCc1ccc(F)cc1 ?
1

Hey, what did the test say about COc1cccc(Nc2ncc3nc(-c4cn(C)c5ccccc45)c(=O)n(CCC#N)c3n2)c1 ?
0

Assay result, entry COC(=O)[C@@]1(Cc2ccc(F)cc2)[C@H]2c3cc(C(=O)N4CCCC4)n(CCc4c[nH]c5ccccc45)c3C[C@H]2CN1C(=O)c1ccccc1 — outcome?
0

Per the records of this test, what outcome belongs to N=c1nc(N2CCCCC2)cc(N)n1O ?
0

Hello, I am checking results. What call was entered for Cn1c2c(c(=O)n(C)c1=O)C(C(F)(F)F)(C(F)(F)F)N=C(c1ccc(Cl)cc1)N2 ?
0
